assay: NCI Yeast Anticancer Drug Screen. Data for the bub3 strain (AID 167); settings: S. cerevisiae bub3 mutant strain, at 50.0 µM, active compounds read high
Compounds without any hit were thinned out: in the full panel of roughly 79,000, 15% have a hit.
Assign growth inhibition to each entry below.
Entry rule: numbers only, all in %.

Please fill in: growth inhibition reported for COc1cc(C=O)ccc1OC(=O)Nc1cc(Cl)ccc1C = 13.2

Please fill in: growth inhibition reported for CCN(CC)CCCNc1cc(O)cc2cccnc12 = 2.3

Please fill in: growth inhibition reported for CC(C)[C@@H](C)[C@@]1(C)C[C@@H]1[C@@H](C)[C@H]1CC[C@@H]([C@@H]2CC=C3C[C@@H](O)CC[C@]3(C)C2=O)[C@]1(C)CCO = -7.35

Please fill in: growth inhibition reported for CN(C)CCCNC(=O)N/N=C\c1cccc2ccccc12 = -4

Please fill in: growth inhibition reported for CN(c1ccccc1)c1cc2nc3ccccc3nc2cc1O = 2

Please fill in: growth inhibition reported for Cc1ccoc1 = 26.8

Please fill in: growth inhibition reported for Cc1ccc(O)cc1C(=O)O = -3.75

Please fill in: growth inhibition reported for O=C(O)/C=C/c1ccccc1C(=O)O = -11.4

Please fill in: growth inhibition reported for N#Cc1nccc2ccccc12 = -1.4

Please fill in: growth inhibition reported for Cc1cc(N(CCC#N)CCC#N)ccc1/C(N=Nc1ccc(Cl)cc1)=N\NC(=O)c1ccccc1 = -7.3

Please fill in: growth inhibition reported for O=C1C(=O)c2ccccc2C(O)=C1c1ccc(Br)cc1 = -3.65

Please fill in: growth inhibition reported for CCCC1CCCC1C (stereo not given) = 17.4

Please fill in: growth inhibition reported for ClCCCc1ccccc1C1=NCCc2ccccc21 = -14.7

Please fill in: growth inhibition reported for Cc1cc(C(C)(C)C)nc(C(C)(C)C)c1 = 0.8

Please fill in: growth inhibition reported for CCCC(=O)SCC[N+](C)(C)C = -13.3

Please fill in: growth inhibition reported for CC1C2=C(CCCC2=O)O/C1=N\O (stereo not given) = 6.7

Please fill in: growth inhibition reported for C=CCNC=O = 14.4

Please fill in: growth inhibition reported for CC(=O)[CH-]C(=O)c1ccccc1.CC(=O)[CH-]C(=O)c1ccccc1.CC12CC3(C)CC(C)(C1)CC([O-])(C2)C3.CC[O-].[Ti+4] = 8.55

Please fill in: growth inhibition reported for CC(=O)N(C)c1ccc(NC(=S)NC(=O)c2cccc([N+](=O)[O-])c2)cc1 = 27.5

Please fill in: growth inhibition reported for Nc1cc(F)ccc1CC(=O)O = 11.7

Please fill in: growth inhibition reported for Cc1cc(O)cc(O)c1C(=O)O[C@]1(C)C(=O)C=C2C=C(/C=C/C(=O)O)OC=C2C1=O = -13.5

Please fill in: growth inhibition reported for CCCCCCc1cc(C(=O)N/N=C/c2ccccc2O)c2ccccc2n1 = 67.6

Please fill in: growth inhibition reported for O=C(c1nc2ccc(Cl)cc2[nH]c1=O)C(O)c1ccco1 (stereo not given) = -24.7

Please fill in: growth inhibition reported for CCCCNC(=O)OCC = -0.35

Please fill in: growth inhibition reported for O=C(CN1CCCCC1)c1ccc(CCc2ccc(C(=O)CN3CCCCC3)cc2)cc1 = 6.5

* * *

experiment: NCI Yeast Anticancer Drug Screen. Data for the rad50 strain (AID 155);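 note: 0% = growth of vehicle-only cultures of the same strain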; conditions: S. cerevisiae rad50 strain growth inhibition; at 50.0 µM; active compounds read high
This is part of a sample that, as a whole, favours compounds with a hit. Of some 79,000 tested, about 15% had one in any assay.
MEASUREMENT TYPE: growth inhibition (%)
Entry rule: numbers only, all in %.

Please fill in: growth inhibition reported for O=c1oc2ccccc2cc1S(=O)(=O)c1ccccc1 = 1.35

Please fill in: growth inhibition reported for CS(=O)(=O)c1nc2ncnc(N)c2[nH]1 = -6.2

Please fill in: growth inhibition reported for O=Cc1ccc2ccccc2c1 = 33.5

Please fill in: growth inhibition reported for CC(=O)Oc1ccc(Nn2c3ccccc3c3ccccc32)c(C)c1 = 56.6

Please fill in: growth inhibition reported for O=Cc1ccc(-c2ccc([N+](=O)[O-])cc2)o1 = 3.7

Please fill in: growth inhibition reported for C/C(=N\N=C(/C)c1cccc2ccccc12)c1cccc2ccccc12 = -8.9

Please fill in: growth inhibition reported for O=[N+]([O-])c1ccc(CC(Cl)c2ccccn2)cc1 (configuration not stated) = 18.9

Please fill in: growth inhibition reported for C=CCCCCCCCCC(=O)NCc1cccnc1 = 24.4

Please fill in: growth inhibition reported for C=C1C(=O)OC2/C=C(\C)CC(O)/C=C(/C)CC(OC(=O)C(O)(CO)C(C)S)C12 (configuration not stated) = -14

Please fill in: growth inhibition reported for CNc1c2c(nc3ccccc13)CCCC2 = 1.95

Please fill in: growth inhibition reported for COc1ccc2c(c1)c(CC(=O)O)c(Br)n2Cc1ccccc1 = 27.9

Please fill in: growth inhibition reported for Clc1ccc(-c2nnc(-c3ccccc3)o2)cc1Cl = -8.4
